- PROTOCOL: folding enthalpy; higher = less favourable; fluorescence melt of hairpins on a sequencing array, two-state fit
- CONDITION_DESCRIPTION: sodium 0.088 M

[
  {
    "SEQ_TEXT": "GATCCGAGAGCGGATC ((((((....))))))",
    "folding enthalpy / kcal/mol": -38.3
  },
  {
    "SEQ_TEXT": "GGCCCCGGAAACGGGACC ((.((((....)))).))",
    "folding enthalpy / kcal/mol": -25.8
  },
  {
    "SEQ_TEXT": "GGTTACGAAAGTATGACC ((((((....)))..)))",
    "folding enthalpy / kcal/mol": -15.1
  },
  {
    "SEQ_TEXT": "GAATGCGAAAGCAGATTC ((((((....)))..)))",
    "folding enthalpy / kcal/mol": -15.6
  },
  {
    "SEQ_TEXT": "GATCGATATATCGATC ((((((....))))))",
    "folding enthalpy / kcal/mol": -41
  },
  {
    "SEQ_TEXT": "GCGGAGTCCCGC ((((....))))",
    "folding enthalpy / kcal/mol": -21.1
  },
  {
    "SEQ_TEXT": "GGCTGAGGAAACTTGGCC (((..((....))..)))",
    "folding enthalpy / kcal/mol": -30.8
  },
  {
    "SEQ_TEXT": "GATCGGTGCTCCGATC ((((((....))))))",
    "folding enthalpy / kcal/mol": -40.8
  },
  {
    "SEQ_TEXT": "GACCCCCGAAAGGGTGTC (((.(((....))).)))",
    "folding enthalpy / kcal/mol": -25
  },
  {
    "SEQ_TEXT": "GTGAGTGGAAACGCTCAC (((((.(....).)))))",
    "folding enthalpy / kcal/mol": -42.5
  },
  {
    "SEQ_TEXT": "GGCGGACCGAAAGGTGCC (((..(((....))))))",
    "folding enthalpy / kcal/mol": -19.9
  },
  {
    "SEQ_TEXT": "GATCGGAGAGCCGATC ((((((....))))))",
    "folding enthalpy / kcal/mol": -30.3
  },
  {
    "SEQ_TEXT": "GATCTATGATAGATC ((((((...))))))",
    "folding enthalpy / kcal/mol": -25.2
  },
  {
    "SEQ_TEXT": "GCACTGGGAAACCAGCAC (..((((....))))..)",
    "folding enthalpy / kcal/mol": -10.1
  },
  {
    "SEQ_TEXT": "GTTACGGGAAACTGTGAC ((.((.(....).)).))",
    "folding enthalpy / kcal/mol": -24.5
  },
  {
    "SEQ_TEXT": "GGTAGGTCGAAAGACACC (((..(((....))))))",
    "folding enthalpy / kcal/mol": -16.5
  },
  {
    "SEQ_TEXT": "GGTGGACGAAAGTCACC (((.(((....))))))",
    "folding enthalpy / kcal/mol": -25.5
  },
  {
    "SEQ_TEXT": "GTTCGTCGAAAGACAAAC (((.(((....))).)))",
    "folding enthalpy / kcal/mol": -16.6
  }
]
